Sourced from ChEMBL document CHEMBL1201862

# Test system: RPMI-8226
# procedureText: NCI tumour cell line growth inhibition, 48 h
Active and inactive are the calls of the source. Cut-off read from the data, not from the text of the source: active = GI50 up to about 1.1 µM and inactive = higher.
Would you mind answering with one of these outcomes? active, inactive

Example entries begin here.
>>> print(df.to_string())
                                   compound  experimentaltarget  classification
0            S=C(NCCc1ccccn1)N/N=C/c1ccccn1           RPMI-8226          active
1                             OCCSCc1ccccc1           RPMI-8226        inactive
2  COC(=O)CN(CC1O[C@@H]2OC(C)(C)O[C@@H]2C1NC(C)=O)C(=O)OCc1ccccc1 (some centres not stated)           RPMI-8226        inactive
3  CCN(CC)c1ccc2c(c1)Nc1cc(=C(C#N)C#N)c3ccccc3c1=N2           RPMI-8226        inactive
4  C[C@@H]1CC[C@@H]2[C@@H](C1)O[C@@H]([C@@H](C)OCc1ccccc1)SC2(C)C           RPMI-8226        inactive

I would be grateful if you could indicate the recorded call for `CC(C)(C)NC1=NC(C(F)(F)F)(C(F)(F)F)NC(=O)N1` .
inactive

I would be grateful if you could indicate the recorded call for `CCOc1ccc(N/C(=C(/C(Cl)=C(/Cl)N(CC)CC)[N+](=O)[O-])n2nnc3ccccc32)cc1` .
inactive

I would be grateful if you could indicate the recorded call for `CC1=C(C(=S)Nc2ccc(Cl)c(C(=O)OC(C)C)c2)SCCO1` .
inactive

I would be grateful if you could indicate the recorded call for `COc1ccccc1NCc1cccc2c(=O)c3ccc(Cl)cc3oc12` .
inactive

I would be grateful if you could indicate the recorded call for `N/C(=N\O)N/N=C/c1cc(Br)cc(Br)c1O` .
inactive

I would be grateful if you could indicate the recorded call for COc1ccc(NC2Oc3cc4c(cc3C(c3cc(OC)c(OC)c(OC)c3)C2C)OCO4)cc1 (configuration not stated) .
active

I would be grateful if you could indicate the recorded call for `O=Cn1c2ccccc2c2ccccc21` .
inactive

* * *

# Tested on: ACHN
# procedureText: NCI tumour cell line growth inhibition, 48 h
Active and inactive are the calls of the source. Cut-off read from the data, not from the text of the source: active = GI50 up to about 1.1 µM and inactive = higher.
Would you mind answering with one of these outcomes? active, inactive

Example entries begin here.
molecule	experimentalTarget	classification
Cc1c2c(cc3c1C(=O)C(=O)C1=C3OC[C@@H]1C)C(C)(C)CCC2	ACHN	inactive
CC1(C)CC(=O)C(C(c2cccc(O)c2O)C2C(=O)CC(C)(C)CC2=O)C(=O)C1	ACHN	inactive
O=C1/C(=C2\SCC(=O)N2c2ccccc2)SC(=S)N1c1ccccc1	ACHN	inactive

I would be grateful if you could indicate the recorded call for `OCCSCc1ccccc1` .
inactive

I would be grateful if you could indicate the recorded call for C[C@@H]1CC[C@H]2[C@H](C)C(OC3O[C@@H]4O[C@@]5(C)CC[C@H]6[C@H](C)CC[C@@H]([C@@H]3C)[C@@]46O5)O[C@@H]3O[C@@]4(C)CC[C@@H]1[C@]32O4 (stereo partly specified) .
inactive

* * *

# Test system: 786-0
# procedureText: NCI tumour cell line growth inhibition, 48 h
Activity calls are given as the source filed them. Rule as the data show it: active = GI50 up to about 1.1 µM and inactive = higher.
measuredParameter: GI50

Worked examples, 6 compounds total:
                                   compound             obsvalue
0  CCOc1ccc(N/C(=C(/C(Cl)=C(/Cl)N(CC)CC)[N+](=O)[O-])n2nnc3ccccc32)cc1   17.2 µM (inactive)
1  O=C1CCc2ccc(O)c(c2)Oc2ccc(cc2)[C@@H]2O[C@@H]2CO1  > 100 µM (inactive)
2  CSc1c(C)[n+]([O-])c2cc(Cl)c(Cl)cc2[n+]1[O-]   17.3 µM (inactive)
3  Cc1c(Cl)ccc2c1NC(=O)C2(O)CC(=O)c1ccc(Cl)cc1Cl (centres undefined)   27.2 µM (inactive)
4  Cc1ccc2nc(Cl)c(/C=N/N3C(=O)/C(=C/c4ccccc4S)N=C3c3ccccc3)cc2c1     54 µM (inactive)
5                  CC(C)OC(=O)Nc1cccc(Cl)c1  > 100 µM (inactive)

Please fill in: GI50 reported for `Cc1cc(C)nc(NS(=O)(=O)c2ccc(NC(=O)c3cccc4c(Nc5ccc(S(=O)(=O)N=C(N)N)cc5)c5ccc(Cl)cc5nc34)cc2)n1` = 17.7 µM (inactive)
